target or system: constitutively active, truncated mutant RNase L(NΔ335) (Homo sapiens, UniProt Q05823)
Sequence (Q05823 336-741 limits assumed): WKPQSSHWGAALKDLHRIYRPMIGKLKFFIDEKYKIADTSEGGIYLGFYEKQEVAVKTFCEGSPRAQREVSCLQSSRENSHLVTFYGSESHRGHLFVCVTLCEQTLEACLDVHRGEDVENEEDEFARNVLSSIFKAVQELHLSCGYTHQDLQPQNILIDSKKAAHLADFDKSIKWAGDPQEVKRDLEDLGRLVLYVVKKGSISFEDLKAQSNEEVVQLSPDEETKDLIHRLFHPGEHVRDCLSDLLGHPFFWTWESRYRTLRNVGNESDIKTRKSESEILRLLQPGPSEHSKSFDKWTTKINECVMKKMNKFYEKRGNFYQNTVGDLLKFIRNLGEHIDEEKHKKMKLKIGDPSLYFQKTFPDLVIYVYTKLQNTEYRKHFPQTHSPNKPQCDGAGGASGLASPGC
test method notes: biochemical
measurement kind: pIC50
pIC50 here is simply -log10 of the concentration when that concentration is written in mol/L.

Name the reported pIC50 value associated with the molecule CCN(CC)CCNC(=O)c1c(C)[nH]c(/C=C2\C(=O)Nc3ccc(F)cc32)c1C
5.85

* * *

test method notes: in vitro
condition context: human
measurement kind: cytotoxicity

Name the reported cytotoxicity value associated with the molecule CCN(CC)CCNC(=O)c1c(C)[nH]c(/C=C2\C(=O)Nc3ccc(F)cc32)c1C [sunitinib]
60%
